Overview of reported Activity across a group of molecules:
- experimental_protocol: Induction of nitric oxide release in phosphate buffer at 10^-4 M at pH 7.4 after 2 hrs by Griess colorimetric method in presence of N-acetylcysteine
- Format: physicochemical
- assay_conditions: pH 7.4, 2 h, 100 µM
Field format: number, assumed mol/mol, no unit text.

The examples below pair each entry with its known result.
C=CCn1c(SCC(=O)Nc2ccc(/C(C)=N/O)cc2)nnc1-c1cc(OC)c(OC)c(OC)c1 | 0.15
COc1ccc(-c2nnc(SCC(=O)Nc3ccc(/C(C)=N/O)cc3)n2-c2ccccc2)cc1 | 0.17
CCn1c(SCC(=O)Nc2ccc(/C(C)=N/O)cc2)nnc1-c1cc(OC)c(OC)c(OC)c1 | 0.13
COc1cc(-c2nnc(SCC(=O)Nc3ccc(/C(C)=N/O)cc3)n2-c2ccccc2)cc(OC)c1OC | 0.14

Okay, next one:
In: Please indicate Activity recorded for C=CCn1c(SCC(=O)Nc2ccc(/C(C)=N/O)cc2)nnc1-c1ccccc1
Out: 0.2
